# Target Entity: Voltage-gated inwardly rectifying potassium channel KCNH2 (Homo sapiens, UniProt Q12809)
# Sequence (Q12809 whole entry): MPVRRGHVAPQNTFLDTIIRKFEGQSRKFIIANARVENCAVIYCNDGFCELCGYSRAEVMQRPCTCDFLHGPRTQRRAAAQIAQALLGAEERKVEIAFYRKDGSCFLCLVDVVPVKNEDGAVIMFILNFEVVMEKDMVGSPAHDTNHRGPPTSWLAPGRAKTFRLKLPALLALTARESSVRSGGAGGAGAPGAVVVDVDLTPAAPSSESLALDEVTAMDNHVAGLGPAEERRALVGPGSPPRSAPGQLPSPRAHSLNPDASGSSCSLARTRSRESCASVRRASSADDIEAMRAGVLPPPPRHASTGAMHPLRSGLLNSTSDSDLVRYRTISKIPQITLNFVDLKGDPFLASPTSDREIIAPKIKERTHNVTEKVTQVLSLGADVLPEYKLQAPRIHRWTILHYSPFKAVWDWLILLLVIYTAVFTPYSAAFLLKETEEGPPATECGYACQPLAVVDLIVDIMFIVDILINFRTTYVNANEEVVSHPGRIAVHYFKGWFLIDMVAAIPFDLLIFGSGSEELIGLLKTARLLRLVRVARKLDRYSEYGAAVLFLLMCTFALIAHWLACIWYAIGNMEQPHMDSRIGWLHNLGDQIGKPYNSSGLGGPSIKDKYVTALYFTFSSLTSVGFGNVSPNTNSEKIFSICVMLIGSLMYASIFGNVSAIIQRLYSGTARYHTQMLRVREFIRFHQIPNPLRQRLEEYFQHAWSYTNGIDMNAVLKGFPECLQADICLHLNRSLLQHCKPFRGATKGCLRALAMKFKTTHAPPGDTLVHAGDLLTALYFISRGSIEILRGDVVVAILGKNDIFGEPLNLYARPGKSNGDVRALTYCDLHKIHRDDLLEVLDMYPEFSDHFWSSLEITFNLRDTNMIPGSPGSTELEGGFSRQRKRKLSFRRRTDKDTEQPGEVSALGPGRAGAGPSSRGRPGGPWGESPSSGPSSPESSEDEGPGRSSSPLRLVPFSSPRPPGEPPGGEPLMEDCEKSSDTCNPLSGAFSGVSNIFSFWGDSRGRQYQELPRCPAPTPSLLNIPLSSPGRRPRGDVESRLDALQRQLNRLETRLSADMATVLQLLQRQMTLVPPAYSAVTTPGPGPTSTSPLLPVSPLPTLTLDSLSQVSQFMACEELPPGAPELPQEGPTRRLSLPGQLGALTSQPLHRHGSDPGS
# Protocol Summary: Inhibition of human ERG assessed as tail current by plate-based planar patch clamp assay
Property: pIC50
Please keep in mind that pIC50 is minus log10 of the molar concentration; only the number is needed.

Reported pIC50 ( "Cc1nnc(-c2nn(C)c3ccc(Nc4nccc(-n5cc(N[C@@H]6CCOC[C@@H]6N)c(C)n5)n4)cc23)o1" ) = 4.96

The measured pIC50 associated with "CNC(=O)c1nn(C)c2ccc(Nc3nccc(-n4cc(N[C@@H]5CCOC[C@@H]5N)cn4)n3)cc12" reads 4.82

The recorded pIC50 for "Cc1nn(-c2ccnc(Nc3ccc4c(c3)c(C(=O)C(F)(F)F)cn4C)n2)cc1N[C@@H]1CCOC[C@@H]1N" is 5.33

* * *

# Protocol Summary: Oral bioavailability in Han Wistar rat at 2 umol/kg
# Assay type: ADME, organism-based
# Condition Summary: in vivo, at 2 µmol/kg
Property: bioavailability
# output: number + unit

Quick note, bioavailability for "CNC(=O)c1nn(C)c2ccc(Nc3nccc(-n4cc(N[C@@H]5CCOC[C@@H]5N)c(C)n4)n3)cc12" landed at 3.8%

Reported bioavailability ( "CNC(=O)c1nn(C)c2ccc(Nc3nccc(-n4cc(NCC5(N)CC5)c(C)n4)n3)cc12" ) = 29%

Value of bioavailability reported for the molecule "CNC(=O)c1nn(C)c2ccc(Nc3nccc(-n4cc(N[C@@H]5CCOC[C@@H]5N)cn4)n3)cc12" is 1.8%

Looking up "CNC(=O)c1nn(C)c2ccc(Nc3nccc(-n4cc(N[C@@H]5CCNC5)c(C)n4)n3)cc12" , I see its bioavailability listed as 0%

Form field bioavailability, entry "CNC(=O)c1nn(C)c2ccc(Nc3nccc(-n4cc(N[C@@H]5CCCNC5)c(C)n4)n3)cc12" : 0%

* * *

# Protocol Summary: Intrinsic clearance in human liver microsomes
# Format: ADME, Microsome
# Condition Summary: read-out: CLH
Property: microsomal CLint

The recorded microsomal CLint for "CNC(=O)c1nn(C)c2ccc(Nc3nccc(-n4cc(N[C@@H]5CCCNC5)c(C)n4)n3)cc12" is < 5 µL/min/mg

# microsomal CLint (compound: "CNC(=O)c1nc(C)n2ccc(Nc3nccc(-n4cc(NCCN)cn4)n3)cc12" ) is < 3 µL/min/mg

According to the records, this compound "CNC(=O)c1nn(C)c2ccc(Nc3nccc(-n4cc(OC5CNC5)c(C)n4)n3)cc12" displays microsomal CLint of < 3 µL/min/mg

Record summary for "CNC(=O)c1nn(C)c2ccc(Nc3nccc(-n4cc(N[C@@H]5CCNC5)c(C)n4)n3)cc12" : reported microsomal CLint = < 10 µL/min/mg

// field: microsomal CLint; key: "CNC(=O)c1nn(C)c2ccc(Nc3nccc(-n4cc(O[C@@H]5CCNC5)c(C)n4)n3)cc12" ; value = < 5 µL/min/mg
